# Test system: rats
# method: reversal of retrograde amnesia in rats produced by electroconvulsive shock treatment
# Format: in vivo, rat (Charles River CD strain)
# Design: scale not given here
# setup-conditions: 0.1 mg/kg
Assign labels as follows, please: Y for reversal of retrograde amnesia (Table C) below 30; N for reversal of retrograde amnesia (Table C) equal to or exceeding 30.

Worked set:
Exam item: Dear reviewer, please state whether CCCN1CC=C(c2ccccc2)C(C(=O)OC)C1 (stereo not shown) has reversal of retrograde amnesia (Table C) strictly beneath 30.
Marked response: N

Exam item: Item: CCCN1CCC(c2ccccc2)=C(C(=O)OC)C1
Marked response: N

Exam item: Item: COC(=O)C1CN(C)CC=C1c1ccccc1 (racemic)
Marked response: Y

***
Exam item: Dear reviewer, please state whether CCN1CCC(c2ccccc2)=C(C(=O)OCc2ccccc2)C1 has reversal of retrograde amnesia (Table C) strictly beneath 30.
Marked response: Y

Exam item: Item: CCN1CC=C(c2ccccc2)C(C(=O)OC)C1 (stereo not shown)
Marked response: Y

Exam item: Item: COC(=O)C1=C(c2ccccc2)CCN(C)C1
Marked response: N

Exam item: Item: CCN1CCC(c2ccccc2)=C(C(=O)OC)C1
Marked response: N

###

# assayed-target: muscarinic binding site
# method: inhibition of specific binding at the muscarinic binding site
Structures can show the parent of a compound that is named as a salt.
measured-attribute: pIC50
One number for each entry, as −log10 of the molar value.

Exam item: So what's the measured pIC50 for this one? CCN1CCC(c2ccccc2)=C(C(=O)Nc2ccccc2)C1
Marked response: 5.00

Exam item: Item: CCN1CCC(c2ccccc2)=C(C(=O)OC(C)C)C1
Marked response: 6.40

Exam item: Item: COC(=O)C1CN(CCc2ccccc2)CC=C1c1ccccc1 (centres unmarked)
Marked response: 5.00

Exam item: Item: CCCN1CCC(c2ccc(Cl)cc2)=C(C(=O)OCc2ccccc2)C1 [Example 43, monohydrochloride]
Marked response: 6.40

Moving on to the next molecule.
Exam item: So what's the measured pIC50 for this one? CCN1CCC(c2ccccc2)=C(C(=O)N2CCCCC2)C1 [Example 11, monohydrochloride]
Marked response: 7.00
